Test: Pharmacokinetic analysis of plasma after oral PCLX-001 (UHPLC-MS, two-compartment model)
Type: in vivo, human
Conditions: human, plasma, po, 20 mg, patient, 20 mg oral, single dose; read-out: T ½ (apparent terminal half-life) (converted)

chemical structure	half-life (min)
Cc1c(NS(=O)(=O)c2c(Cl)cc(-c3ccnc(N4CCNCC4)c3)cc2Cl)c(CC(C)C)nn1C	960

----------
Assay: Pharmacokinetic analysis of plasma after oral PCLX-001 (UHPLC-MS, two-compartment model)
Type: in vivo, human
Details: human, plasma, po, 20 mg, patient, 20 mg oral daily, Day 15, plasma; read-out: Day 15 AUC0–∞
recorded metric: AUC(0-inf) (ng·h/mL)

chemical structure	value measured
Cc1c(NS(=O)(=O)c2c(Cl)cc(-c3ccnc(N4CCNCC4)c3)cc2Cl)c(CC(C)C)nn1C	2640
